target: HIS-FLAG-tagged LiTryR dimer (Leishmania infantum, UniProt A4HSF7); construct: made in house; host or cells: E. coli BL21 (DE3) Rossetta 2; test: LiTryR dimer quantitation assay (ELISA); format: biochemical; conditions: HIS-FLAG-LiTryR 400 nM, 16 h at 37 °C, Tris pH 8.0, 300 mM NaCl, compounds 25 to 3.1 μM, IC50 ± SE, three independent experiments in triplicate, SEM, read-out: IC50dim, LiTryR dimer quantitation
Sequence (A4HSF7 entry or part of it): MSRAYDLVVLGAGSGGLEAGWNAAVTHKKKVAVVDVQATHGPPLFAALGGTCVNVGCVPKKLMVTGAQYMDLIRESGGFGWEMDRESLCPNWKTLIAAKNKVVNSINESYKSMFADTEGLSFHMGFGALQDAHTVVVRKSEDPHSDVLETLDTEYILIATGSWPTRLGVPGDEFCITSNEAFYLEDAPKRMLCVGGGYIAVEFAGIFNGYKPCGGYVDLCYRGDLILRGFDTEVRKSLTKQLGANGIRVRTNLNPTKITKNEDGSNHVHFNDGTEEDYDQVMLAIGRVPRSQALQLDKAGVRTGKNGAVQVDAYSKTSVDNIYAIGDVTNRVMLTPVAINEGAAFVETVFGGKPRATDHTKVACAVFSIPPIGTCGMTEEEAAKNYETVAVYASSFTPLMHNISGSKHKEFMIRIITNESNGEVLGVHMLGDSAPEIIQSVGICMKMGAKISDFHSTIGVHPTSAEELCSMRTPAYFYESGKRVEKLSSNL
endpoint-name: IC50 (µM)
Provide only the numeric value, understood in µM.

Recorded IC50, per entry:
| compound-structure-string | IC50, µM |
| --- | --- |
| CC[C@H](C)[C@H](NC(=O)CNC(=O)[C@@H](NC(=O)[C@H](CO)NC(=O)[C@H](CCC(N)=O)NC(=O)[C@@H](NC(=O)[C@@H](NC(=O)[C@H](CCCCN)NC(=O)[C@@H]1CCCN1C(=O)COCCOCCNC(=O)CN1C(=O)c2cccc3cccc1c23)[C@@H](C)CC)[C@@H](C)CC)C(C)C)C(N)=O | 7.8 |
| CC[C@H](C)[C@H](NC(=O)CNC(=O)[C@@H](NC(=O)[C@H](CO)NC(=O)[C@H](CCC(N)=O)NC(=O)[C@@H](NC(=O)[C@@H](NC(=O)[C@H](CCCCN)NC(=O)[C@@H]1CCCN1C(=O)CN1C(=O)c2cccc3cccc1c23)[C@@H](C)CC)[C@@H](C)CC)C(C)C)C(N)=O | 7.1 |

Now consider the entry below.
Which IC50 is reported for this compound? "CC[C@H](C)[C@H](NC(=O)CNC(=O)[C@@H](NC(=O)[C@H](CO)NC(=O)[C@H](CCC(N)=O)NC(=O)[C@@H](NC(=O)[C@@H](NC(=O)[C@H](CCCCN)NC(=O)[C@@H]1CCCN1C(=O)COCCOCCNCc1ccccc1)[C@@H](C)CC)[C@@H](C)CC)C(C)C)C(N)=O"
12.6

---

Biological target: Leishmania infantum trypanothione disulfide reductase (LiTryR) (Leishmania infantum)
Construct: HIS; made in house; host or cells: E. coli BL21 (DE3) Rossetta 2
Sequence (A4HSF7 entry or part of it): as above
Test: LiTryR oxidoreductase activity assay (DTNB-coupled)
Assay type: biochemical
Conditions: modified DTNB-coupled assay, 26 °C, HEPES pH 7.5, HIS-LiTryR 7 nM, TS2 1 μM, NADPH 150 μM, inhibitor 0.1-25 μM, no preincubation; IC50 ± SE, three independent experiments in triplicate; SEM; read-out: IC50act, LiTryR oxidoreductase activity
Procedure: LiTryR oxidoreductase activity was assessed spectrophotometrically using a modified version of the DTNB-coupled assay, described by Hamilton et al.. […] LiTryR oxidoreductase activity was monitored at 26 °C by an increase in absorbance at 412 nm in an EnSpire Multimode Plate Reader (PerkinElmer, Waltham, MA, USA). […] The TNB concentration was obtained by multiplying the absorbance values by 100 (50 μM TNB generates 0.5 arbitrary units of absorbance at 412 nm). […]
Reported pIC50 values for the following compounds.
Please keep in mind that pIC50 is minus log10 of the molar concentration; only the number is needed.

Example compounds with recorded pIC50:
| compound-structure-string | endpoint-name | value-measured |
| --- | --- | --- |
| CC[C@H](C)[C@H](NC(=O)CNC(=O)[C@@H](NC(=O)[C@H](CO)NC(=O)[C@H](CCC(N)=O)NC(=O)[C@@H](NC(=O)[C@@H](NC(=O)[C@H](CCCCN)NC(=O)[C@@H]1CCCN1C(=O)COCCOCCNC(=O)Cc1ccc2ccccc2c1)[C@@H](C)CC)[C@@H](C)CC)C(C)C)C(N)=O | pIC50 | 4.74 |
| CC[C@H](C)[C@H](NC(=O)CNC(=O)[C@@H](NC(=O)[C@H](CO)NC(=O)[C@H](CCC(N)=O)NC(=O)[C@@H](NC(=O)[C@@H](NC(=O)[C@H](CCCCN)NC(=O)[C@@H]1CCCN1C(=O)CCNC(=O)Cc1ccccc1)[C@@H](C)CC)[C@@H](C)CC)C(C)C)C(N)=O | pIC50 | 4.69 |

Consider now this further compound.
Please provide the recorded pIC50 for "CC[C@H](C)[C@H](NC(=O)CNC(=O)[C@@H](NC(=O)[C@H](CO)NC(=O)[C@H](CCC(N)=O)NC(=O)[C@@H](NC(=O)[C@@H](NC(=O)[C@H](CCCCN)NC(=O)[C@@H]1CCCN1C(=O)COCCOCCNC(=O)Cc1ccccc1)[C@@H](C)CC)[C@@H](C)CC)C(C)C)C(N)=O" , tested on Leishmania infantum trypanothione disulfide reductase (LiTryR) (Leishmania infantum).
4.66

---

biological target: HIS-FLAG-tagged LiTryR dimer (Leishmania infantum); construct: made in house; host or cells: E. coli BL21 (DE3) Rossetta 2; assay: LiTryR dimer quantitation assay (ELISA); format: biochemical; details: HIS-FLAG-LiTryR 400 nM, 16 h at 37 °C, Tris pH 8.0, 300 mM NaCl, compounds 25 to 3.1 μM, IC50 ± SE, three independent experiments in triplicate, SEM, read-out: IC50dim, LiTryR dimer quantitation
endpoint-name: pIC50
Scale for pIC50: -log10 of concentration given in mol/L; no unit attached.

The following compounds have reported results that may help.
| compound-structure-string | endpoint-name | value-measured |
| --- | --- | --- |
| CC[C@H](C)[C@H](NC(=O)CNC(=O)[C@@H](NC(=O)[C@H](CO)NC(=O)[C@H](CCC(N)=O)NC(=O)[C@@H](NC(=O)[C@@H](NC(=O)[C@H](CCCCN)NC(=O)[C@@H]1CCCN1C(=O)COCCOCCNC(=O)Cc1ccc(-c2ccccc2)cc1)[C@@H](C)CC)[C@@H](C)CC)C(C)C)C(N)=O | pIC50 | 4.64 |
| CC[C@H](C)[C@H](NC(=O)CNC(=O)[C@@H](NC(=O)[C@H](CO)NC(=O)[C@H](CCC(N)=O)NC(=O)[C@@H](NC(=O)[C@@H](NC(=O)[C@H](CCCCN)NC(=O)[C@@H]1CCCN1C(=O)COCCNC(=O)CN1C(=O)c2cccc3cccc1c23)[C@@H](C)CC)[C@@H](C)CC)C(C)C)C(N)=O | pIC50 | 5.15 |
| CC[C@H](C)[C@H](NC(=O)CNC(=O)[C@@H](NC(=O)[C@H](CO)NC(=O)[C@H](CCC(N)=O)NC(=O)[C@@H](NC(=O)[C@@H](NC(=O)[C@H](CCCCN)NC(=O)[C@@H]1CCCN1C(=O)COCCOCCNC(=O)Cc1ccc2ccccc2c1)[C@@H](C)CC)[C@@H](C)CC)C(C)C)C(N)=O | pIC50 | 5.06 |
| CC[C@H](C)[C@H](NC(=O)CNC(=O)[C@@H](NC(=O)[C@H](CO)NC(=O)[C@H](CCC(N)=O)NC(=O)[C@@H](NC(=O)[C@@H](NC(=O)[C@H](CCCCN)NC(=O)[C@@H]1CCCN1C(=O)Cc1ccccc1)[C@@H](C)CC)[C@@H](C)CC)C(C)C)C(N)=O | pIC50 | 4.94 |
| CC[C@H](C)[C@H](NC(=O)CNC(=O)[C@@H](NC(=O)[C@H](CO)NC(=O)[C@H](CCC(N)=O)NC(=O)[C@@H](NC(=O)[C@@H](NC(=O)[C@H](CCCCN)NC(=O)[C@@H]1CCCN1C(=O)COCCOCC[N+](C)(Cc1ccccc1)Cc1ccccc1)[C@@H](C)CC)[C@@H](C)CC)C(C)C)C(N)=O | pIC50 | 4.67 |
| CC[C@H](C)[C@H](NC(=O)CNC(=O)[C@@H](NC(=O)[C@H](CO)NC(=O)[C@H](CCC(N)=O)NC(=O)[C@@H](NC(=O)[C@@H](NC(=O)[C@H](CCCCN)NC(=O)[C@@H]1CCCN1C(=O)CCNC(=O)Cc1ccccc1)[C@@H](C)CC)[C@@H](C)CC)C(C)C)C(N)=O | pIC50 | 4.90 |

// below: pIC50 requested for another compound
# lookup: pIC50 of "CC[C@H](C)[C@H](NC(=O)CNC(=O)[C@@H](NC(=O)[C@H](CO)NC(=O)[C@H](CCC(N)=O)NC(=O)[C@@H](NC(=O)[C@@H](NC(=O)[C@H](CCCCN)NC(=O)[C@@H]1CCCN1C(=O)COCCOCCNC(=O)Cc1ccccc1)[C@@H](C)CC)[C@@H](C)CC)C(C)C)C(N)=O"
5.03

---

# IC50 per record follows
Molecular target: HIS-FLAG-tagged LiTryR dimer (Leishmania infantum, UniProt A4HSF7)
Construct: made in house; host or cells: E. coli BL21 (DE3) Rossetta 2
Experiment: LiTryR dimer quantitation assay (ELISA)
Assay type: biochemical
Details: HIS-FLAG-LiTryR 400 nM, 16 h at 37 °C, Tris pH 8.0, 300 mM NaCl, compounds 25 to 3.1 μM, IC50 ± SE, three independent experiments in triplicate, SEM, read-out: IC50dim, LiTryR dimer quantitation
Procedure: The relative amount of the LiTryR dimeric form in the presence of the SMPCs was assessed using an enzyme-linked immunosorbent assay (ELISA), developed in our laboratory. […] The enzymatic reactions were stopped after 5 min by addition of […] (100 μL/well) and the absorbances were measured at 490 nm in an EnSpire Multimode Plate Reader (PerkinElmer, Waltham, MA, USA). […]
Quick note: give the figure in µM, leave out the unit.

Examples with their reported IC50 follow.
| compound-structure-string | system-name | IC50 [µM] |
| --- | --- | --- |
| CC[C@H](C)[C@H](NC(=O)CNC(=O)[C@@H](NC(=O)[C@H](CO)NC(=O)[C@H](CCC(N)=O)NC(=O)[C@@H](NC(=O)[C@@H](NC(=O)[C@H](CCCCN)NC(=O)[C@@H]1CCCN1C(=O)COCCNC(=O)Cc1ccccc1)[C@@H](C)CC)[C@@H](C)CC)C(C)C)C(N)=O | HIS-FLAG-tagged LiTryR dimer (Leishmania infantum, UniProt A4HSF7) | 15 |
| CC[C@H](C)[C@H](NC(=O)CNC(=O)[C@@H](NC(=O)[C@H](CO)NC(=O)[C@H](CCC(N)=O)NC(=O)[C@@H](NC(=O)[C@@H](NC(=O)[C@H](CCCCN)NC(=O)[C@@H]1CCCN1C(=O)COCCOCCN(Cc1ccccc1)Cc1ccccc1)[C@@H](C)CC)[C@@H](C)CC)C(C)C)C(N)=O | HIS-FLAG-tagged LiTryR dimer (Leishmania infantum, UniProt A4HSF7) | 7.1 |

Using the record for "CC[C@H](C)[C@H](NC(=O)CNC(=O)[C@@H](NC(=O)[C@H](CO)NC(=O)[C@H](CCC(N)=O)NC(=O)[C@@H](NC(=O)[C@@H](NC(=O)[C@H](CCCCN)NC(=O)[C@@H]1CCCN1C(=O)COCCOCCNC(=O)CC12CC3CC(CC(C3)C1)C2)[C@@H](C)CC)[C@@H](C)CC)C(C)C)C(N)=O" , report its IC50.
8.1
